- Method Summary: A CellTox Green Cytotoxicity Assay to monitor cytotoxicity in HepG2 cells - 40 hour (AID 1224879); note: nearly all actives have a fitted effect of over 40% in size
- Stated Conditions: CellTox Green fluorescence; series mostly up to 76.8 µM
Inconclusive results are not listed. The source made the active and inactive calls. Calls come from the whole dose curve; as a rule, active = well fitted activation curve with a large enough effect in the repeat runs; inconclusive = weak or mixed curves; inactive = flat fitted curve, though single readings scatter.
Quantity Name: outcome

O=C1N=C(O)CN1/N=C/c1ccc(-c2ccc([N+](=O)[O-])cc2)o1    inactive
OC[C@@H](O)[C@H](O)[C@H](O)[C@@H](O)CO    inactive
CCc1ccccc1O    inactive
CCCCCCC(C)(C)S    inactive
C=C(C)C(=O)OCCC[Si](OC)(OC)OC    inactive

Q) Which value of outcome has been reported for Nc1c(S(=O)(=O)O)cc(Br)c2c1C(=O)c1ccccc1C2=O in the records?
A) inactive

Q) Next entry: O=C(O)c1cc(-c2ccccc2)nc2ccccc12
A) inactive

====

- Method Summary: qHTS RealTime-Glo MT Cell Viability Assay in HEK293 cells - 8 hour (AID 1224887); note: nearly all actives have a fitted effect of over 50% in size
- Stated Conditions: RealTime-Glo luminescence; series mostly up to 76.8 µM
Results filed as inconclusive are left out. The source made the active and inactive calls. The call rests on the fitted dose curve; in most records, active means well fitted cell-killing curve with a large enough effect in the repeat runs; inconclusive means weak or mixed curves, or effect the other way; inactive means flat fitted curve, though single readings scatter.
Assign a class; possible classes are active, inactive

NCCNCCNCCNCCN    inactive

Q) # outcome recorded in this test, key = O=S(=O)(O)c1cc(S(=O)(=O)O)c2c(N=Nc3ccccc3)c(O)ccc2c1
A) inactive

Q) Also need CCCCC(CC)C(=O)OCCOCCOCCOC(=O)C(CC)CCCC (configuration not stated) , thanks.
A) inactive

Q) Please answer likewise for CC#C[C@]1(O)CC[C@H]2[C@@H]3CCC4=CC(=O)CCC4=C3[C@@H](c3ccc(N(C)C)cc3)C[C@@]21C
A) active

Q) Please do the same for CCCCC/C=C\C/C=C\CCCCCCCC(=O)OC as well.
A) inactive

Q) And what about the compound O=C(c1ccc(O)cc1)c1ccc(O)cc1O ?
A) inactive

Q) Ok, now OC[C@@H](O)[C@H](O)[C@H](O)[C@@H](O)CO
A) inactive

Q) Next entry: O=C(O)c1ccc([N+](=O)[O-])cc1
A) inactive

====

- Method Summary: qHTS assay for small molecule disruptors of the mitochondrial membrane potential (AID 720635)
- Stated Conditions: HepG2 mitochondrial membrane potential, Mito-MPS dye ratio; series mostly up to 83.2 µM
Records with an inconclusive call do not appear. Calls of active or inactive are those of the source. Calls come from the whole dose curve; as a rule, active = well fitted inhibition curve with a large enough effect in the signal ratio in the repeat runs; inconclusive = weak or mixed curves, or effect the other way; inactive = flat fitted curve, though single readings scatter; the % refers to the signal ratio.
Pick one: T = active, F = inactive

Examples with answers:
Nc1nc2ncc(CNc3ccc(C(=O)N[C@@H](CCC(=O)O)C(=O)O)cc3)nc2c(=O)[nH]1    F
NCc1cccc(CN)c1    F

Q) Hello, I am checking results. What call was entered for CCCCOCCOCCOC(=O)CCCCC(=O)OCCOCCOCCCC ?
A) F

Q) Thanks! And CCOC(=O)/C=C\C(=O)OCC ?
A) F

Q) Record: OCC1CCCO1 (stereo unspecified)
A) F

Q) Same lookup for CC(=O)Nc1ccc(C(=O)O)cc1 , please.
A) F

Q) Can you handle O=C(Oc1ccccc1)c1ccc(O)cc1 next?
A) T

====

- Tested System: Nuclear receptor subfamily 1 group I member 3 (Homo sapiens) (UniProt Q14994)
- Sequence (Q14994 whole entry, looked up): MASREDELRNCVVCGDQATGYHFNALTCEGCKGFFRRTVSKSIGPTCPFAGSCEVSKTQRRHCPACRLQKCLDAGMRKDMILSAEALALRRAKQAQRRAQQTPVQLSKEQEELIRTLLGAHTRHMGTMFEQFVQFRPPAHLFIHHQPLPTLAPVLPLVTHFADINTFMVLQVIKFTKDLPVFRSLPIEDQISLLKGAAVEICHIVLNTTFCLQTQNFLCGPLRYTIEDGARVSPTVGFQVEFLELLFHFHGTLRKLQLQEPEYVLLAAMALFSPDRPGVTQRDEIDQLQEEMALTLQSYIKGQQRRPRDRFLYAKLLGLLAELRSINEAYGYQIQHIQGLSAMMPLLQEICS
- Method Summary: qHTS assay to identify small molecule agonists of the constitutive androstane receptor (CAR) signaling pathway (AID 1224839);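 note: HepG2 cells stably carrying human CAR and a CYP2B6 luciferase reporter; nearly all actives have a fitted effect of over 15% in size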
- Stated Conditions: HepG2 hCAR CYP2B6-luciferase, agonist mode, 24 h; series mostly up to 92.4 µM
Inconclusive results are not listed. Calls of active or inactive are those of the source. The call rests on the fitted dose curve; in most records, active means well fitted activation curve with a large enough effect in the repeat runs; inconclusive means weak or mixed curves; inactive means no such curve, though single readings can be large or run the other way.
Quantity Name: outcome

As a guide, the following entries are already answered.
O=C(c1cc(O)c(O)c(O)c1)c1ccc(O)c(O)c1O    inactive
CC(C)(CO)COC(=O)C(C)(C)CO    inactive
CCCCC(CC)COC(=O)CCCCCCCC(=O)OCC(CC)CCCC (centres undefined)    inactive
CC(=O)CCc1ccccc1    inactive
CCCCC/C=C\C/C=C\CCCCCCCC(=O)OC    inactive

Turning now to a further record.
Q) Entry CC1(C)CC(N=C=O)CC(C)(CN=C=O)C1 (centres undefined) has what outcome?
A) inactive
